Assay: endothelial E-selectin expression blockers – imaging, HUVEC, immunofluorescence, MLSMR starter and 10KST1 sets, primary screen (AID 487);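 note: 100% = median nuclei count of all wells on the same plate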
Conditions: HUVEC TNFalpha-induced E-selectin immunofluorescence imaging, at 2 µM; measured here: cell number, toxicity
Reported nuclei count values are given for each entry in this list.
outcome.measure: nuclei count (%)

molecule: CCCCCOC(=O)CSc1nnc(-c2cc(OC)c(OC)c(OC)c2)o1
reported.value: 119
//
molecule: CCn1c(CCNC(=O)c2cccs2)nnc1SCC(=O)c1ccc(OC)cc1
reported.value: 115
//
molecule: COc1ccc2c(=O)c3c(=O)n(Cc4ccco4)c(-c4cc(OC)c(OC)c(OC)c4)nc3oc2c1
reported.value: 121
//
molecule: O=C(C1CCN(S(=O)(=O)Cc2ccccc2)CC1)N1CCN(c2ncccn2)CC1
reported.value: 96.8
//
molecule: Cc1nc2ccccc2nc1OCC(=O)Nc1cc(C(F)(F)F)ccc1N1CCOCC1
reported.value: 113
//
molecule: O=C(CCn1[nH]c(=O)c2ccccc2c1=O)NCCO
reported.value: 71.1
//
molecule: CCCOc1cccc(NC(=O)c2c(-c3ccccc3)noc2C)c1
reported.value: 116
//
molecule: CCOCCn1c(CN2CCN(c3cccc(Cl)c3)CC2)nc2c1c(=O)n(C)c(=O)n2C
reported.value: 103
//
molecule: CC1Cc2ccccc2N1Cc1cc(=O)n2ccsc2n1 (stereo unspecified)
reported.value: 121
//
molecule: O=C(Nc1ccc(F)cc1F)NC1CC(=O)N(Cc2ccccc2)C1 (stereo unspecified)
reported.value: 103
//
molecule: CCC(C)NC(=O)CS(=O)(=O)Cc1nc(-c2cccc(OC)c2)oc1C (stereo unspecified)
reported.value: 107
//
molecule: COc1cccc(-n2nnnc2SCC(=O)NCc2ccco2)c1
reported.value: 128
//
molecule: O=C(c1ccc(Br)o1)N(Cc1ccccc1)c1ccccn1
reported.value: 107
//
molecule: Cc1ccc(NC(=O)CS(=O)CC(=O)NCC2CCCO2)cc1 (stereo unspecified)
reported.value: 117
//
molecule: CC(C)(C)C(=O)OCC1OC(n2cnc(C(N)=O)n2)C(O)C1O (stereo unspecified)
reported.value: 88
//
molecule: CCOc1ccc(-c2nc(S(=O)(=O)c3ccccc3)c(NCc3cccnc3)o2)cc1
reported.value: 109
//
molecule: Cc1c(NC(=O)c2nn(C)c(=O)c3ccccc23)c(=O)n(-c2ccccc2)n1C
reported.value: 136
//
molecule: Cn1c(=O)n(C)c2cc(NC(=O)C(F)(F)F)ccc21
reported.value: 103
//
molecule: COc1cc(OC)cc(C(=O)NCCN2CCOCC2)c1
reported.value: 108
//
molecule: Cc1sc2nc3n(c(=O)c2c1C)NC(=O)CC3
reported.value: 85
//
molecule: Cc1c(C)n(C(=O)CN2CCN(c3ccccn3)CC2)c2ccccc12
reported.value: 131
//
molecule: O=C(CSc1nc2cc(S(=O)(=O)N3CCOCC3)ccc2o1)NC1CCCc2ccccc21 (stereo unspecified)
reported.value: 86.1
//
molecule: CCOc1nc2ccccc2nc1NS(=O)(=O)c1ccccc1
reported.value: 132
//
molecule: O=C(COC(=O)CCOc1ccccc1)Nc1ccc(Cl)cn1
reported.value: 88.1
//
molecule: COc1ccc(C2=NOC(C(=O)NCc3ccc(F)cc3)C2)cc1OC (stereo unspecified)
reported.value: 99.1
//
molecule: O=C(CNCCC1=CCCCC1)Nc1ccccc1N1CCCCC1
reported.value: 109
//
molecule: CC(C)NC(=O)Nc1cccs1
reported.value: 105
//
molecule: O=C(CSc1nnc(-c2ccccc2)o1)N1CCc2ccccc2C1
reported.value: 121
//
molecule: OC(CN1CCCCC1)Cn1c(C(F)(F)F)nc2ccccc21 (stereo unspecified)
reported.value: 95.5
//
molecule: COC(=O)C(C)Sc1nc2c(c(=O)n(C)c(=O)n2C)n1Cc1cccc(C)c1 (stereo unspecified)
reported.value: 117
//
molecule: O=C(CN(Cc1cccs1)C(=O)CNS(=O)(=O)c1ccccc1)NCc1ccco1
reported.value: 98.5
//
molecule: Cc1ccc(-c2cn3cccnc3n2)cc1NC(=O)c1ccc(Br)o1
reported.value: 103
//
molecule: O=C(Nc1ccc2oc(=O)ccc2c1)c1cccnc1
reported.value: 91.9
//
molecule: CCCCCCn1c(CN2CCCC(C)C2)nc2c1c(=O)n(C)c(=O)n2C (stereo unspecified)
reported.value: 114
//
molecule: CCC(=O)Nc1cccc(Br)c1
reported.value: 123
//
molecule: c1ccc2c(-c3nc(-c4ccncc4)no3)cccc2c1
reported.value: 118
//
molecule: CCC(C)(C)n1nnnc1C(c1ccc(OC)c(OC)c1)N1CCN(c2ccccc2)CC1 (stereo unspecified)
reported.value: 94.4
//
molecule: COc1ccc(C(=O)OC(COc2ccccc2)Cn2ccnc2)cc1 (stereo unspecified)
reported.value: 118
//
molecule: Cc1[nH]c(=O)[nH]c(=O)c1S(=O)(=O)N1c2ccc(F)cc2CCC1C (stereo unspecified)
reported.value: 96.2
//
molecule: Cc1cc(NC(=O)CSc2nc(C3CC3)nc3sc4c(c23)CCC(C)C4)no1 (stereo unspecified)
reported.value: 113
//
molecule: COc1ccc(NC(=O)CSc2ccccn2)cc1OC
reported.value: 88.2
//
molecule: Cc1ccc2c(c1C)NC(C(=O)O)C1CC=CC21 (stereo unspecified)
reported.value: 114
//
molecule: CC12CN3CCN(CC(C3)C1(O)CN1CCCCC1)C2 (stereo unspecified)
reported.value: 121
//
molecule: S=C(NCC1CCCO1)n1nnc2ccccc21 (stereo unspecified)
reported.value: 92.8
//
molecule: CCC1(C)Cc2c(sc3nc(SCC(=O)O)[nH]c(=O)c23)CO1 (stereo unspecified)
reported.value: 104
//
molecule: Cn1c(CN2CCCCC2)nc2cc(NC(=O)c3ccccc3)ccc21
reported.value: 92.4
